B1: tRNA (parent)
chain: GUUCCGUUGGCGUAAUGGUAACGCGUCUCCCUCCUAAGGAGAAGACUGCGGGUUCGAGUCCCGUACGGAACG

- Variants of: B1
- method-description: yeast fitness, log relative to wild type (ln ratio); higher = fitter; tRNA-Arg(CCU), competitive growth, 37 C, 1 M NaCl
Rule: YES for yeast fitness (ln) not less than -0.2, NO for anything less.

Identify whether the reported yeast fitness (ln) of the following variant is -0.2 or greater: G1A U2G G6U C66U A69G A70U
NO

For this variant, is measured yeast fitness (ln) -0.2 or higher? G1A G6A C27U A70U
NO

API: above_or_equal(metric=yeast fitness (ln), cutoff=-0.2) for item U2G A43C A69G A70G C71U
YES

Identify whether the reported yeast fitness (ln) of the following variant is -0.2 or greater: G1A U2C C27U A43C C46U A70U C71U
NO

Threshold query (yeast fitness (ln) >= -0.2) on U2C G6U A43C C66U C71U
NO

Tell me whether yeast fitness (ln) is at least -0.2 here: G1A U2C G6U A43C
YES

Say whether G1A U2C G6A C66U A70U shows yeast fitness (ln) of -0.2 or more.
YES

Given the entry G6U A43C A69G A70G , answer whether its yeast fitness (ln) meets or surpasses -0.2.
NO

Determine whether this variant has yeast fitness (ln) no lower than -0.2: G1A G6A C27U C71U
NO

Kindly determine if yeast fitness (ln) recorded for G1A U2G G6A C27U C66A A70U is above or exactly -0.2.
YES

Has G1A G6A C27U C66U A70U a recorded yeast fitness (ln) greater than or equal to -0.2?
NO

Does yeast fitness (ln) meet or surpass -0.2 for G6U C27U C46U C66U A69G A70G C71U ?
NO

Threshold query (yeast fitness (ln) >= -0.2) on G1A G6U A43C C46U C66A A69G A70U C71U
NO

For this variant, is measured yeast fitness (ln) -0.2 or higher? G6U C27U C46U C66U A70U C71U
NO

Confirm if yeast fitness (ln) reported for the variant G1A U2G C46U C66A A69G A70G C71U is -0.2 or above.
YES

In plain terms: is recorded yeast fitness (ln) at least -0.2 for G6U C27U C46U C66A C71U ?
YES

Textbook exercise: given the entry U2G G6A A43C C66A A70G , state whether its yeast fitness (ln) is greater than or equal to -0.2.
YES

# bool: yeast fitness (ln) of G1A G6A C27U C46U C66U A69G A70U C71U >= -0.2
NO

Please check the record G1A U2G C27U A43C C46U C66U A69G A70U and state if its yeast fitness (ln) is at or above -0.2.
NO

Confirm if yeast fitness (ln) reported for the variant G6U A43C C66U A69G A70G C71U is -0.2 or above.
NO

Decide: is the reported value of yeast fitness (ln) for U2G G6A A43C C46U C66U A69G A70U equal to or greater than -0.2?
YES
